Test system: GH3-TRE-Luc cell line
Assay Conditions: read-out: AC50 (uM) modified / 1000; Tox21_110001=Tox21_202533; viability, 1 nM T3 present, 24 h
Structures can show the parent of a compound that is named as a salt.
Quantity Kind: CC50 (µM)

[[record]]
compound = "CC(C)(C)NC(=O)[C@@H]1C[C@@H]2CCCC[C@@H]2CN1C[C@@H](O)[C@H](Cc1ccccc1)NC(=O)[C@H](CC(N)=O)NC(=O)c1ccc2ccccc2n1 [Saquinavir mesylate]"
unit_abbreviation = "µM"
readout_number = 27.8


----------
System: GH3-TRE-Luc cell line
Assay Conditions: read-out: AC50 (uM) modified / 1000; Tox21_110001=Tox21_202604; viability, 1 nM T3 present, 24 h
Quantity Kind: CC50 (µM)

[[record]]
compound = "C[C@]12CC[C@@H]3c4ccc(O)cc4C[C@@H](CCCCCCCCC[S+]([O-])CCCC(F)(F)C(F)(F)F)[C@H]3[C@@H]1CC[C@@H]2O (stereo partly shown)"
quantity_kind = "CC50"
readout_number = 0.00683


----------
Assay Info: in vitro
Assay Conditions: rat, gh3-tre-luc cells, AC50 (uM) modified / 1000
Positions of bridges follow the written chain, without caps; N, C: chain ends. Non-standard residues stand in square brackets, D forms with d. Residues, ends and D or L forms follow the SMILES beside them. hArg = N=C(N)NCCCC[C@H](N)C(=O)O; Mpa = O=C(O)CCS
Quantity Kind: CC50 at 24 h

[[record]]
molecule = "O=C(/C=C/c1ccccc1)OCCCc1ccccc1 [3-Phenylpropyl cinnamate]"
result = "> 90 µM"

[[record]]
molecule = "O=C(O)CCSCCC(=O)O"
result = "> 90 µM"

[[record]]
molecule = "COC(=O)c1ccc(I)cc1S(=O)(=O)NC(=O)Nc1nc(C)nc(OC)n1 [Iodosulfuron-methyl-sodium]"
result = "> 90 µM"

[[record]]
molecule = "C/C(=C\\C(=O)OCCCCCCCCC(=O)O)C[C@@H]1OC[C@H](C[C@@H]2O[C@H]2[C@@H](C)[C@H](C)O)[C@@H](O)[C@H]1O"
result = "> 50 µM"

[[record]]
molecule = "CCOc1cccc(N)c1"
result = "> 90 µM"

[[record]]
molecule = "O=C1OC(=O)c2cc([N+](=O)[O-])ccc21 [4-Nitrophthalic anhydride]"
result = "> 90 µM"

[[record]]
molecule = "COC(=O)N/N=C/c1c[n+]([O-])c2ccccc2[n+]1[O-]"
result = "> 50 µM"

[[record]]
molecule = "CC(=O)Oc1ccc(C(c2ccc(OC(C)=O)cc2)c2ccccn2)cc1"
result = "> 90 µM"

[[record]]
molecule = "CCCCCc1ccc(N)cc1"
result = "> 90 µM"

[[record]]
molecule = "CCCCCCCCCCCCS"
result = "> 90 µM"

[[record]]
molecule = "COC(=O)c1cccc(C(=O)OC)c1 [Dimethyl isophthalate]"
result = "> 90 µM"

[[record]]
molecule = "CC1=C(O)C(=O)OC1C (stereo not drawn)"
result = "> 90 µM"

[[record]]
molecule = "CN(C)C(=O)C(CCN1CCC(O)(c2ccc(Cl)cc2)CC1)(c1ccccc1)c1ccccc1 [Loperamide]"
result = "6.34 µM"

[[record]]
molecule = "C#C[C@]1(OC(C)=O)CC[C@H]2[C@@H]3CCC4=C[C@@H](OC(C)=O)CC[C@@H]4[C@H]3CC[C@@]21C [Ethynodiol diacetate]"
result = "45 µM"

[[record]]
molecule = "CCCCNC1CC(C)(C)NC(C)(C)C1"
result = "> 90 µM"

[[record]]
molecule = "N=C(N)NCCCC[C@@H]1NC(=O)CCSSC[C@@H](C(N)=O)NC(=O)[C@@H]2CCCN2C(=O)[C@H](Cc2c[nH]c3ccccc23)NC(=O)[C@H](CC(=O)O)NC(=O)CNC1=O [Eptifibatide] ([Mpa][hArg]GDWPC-NH2; disulfide 1-7)"
result = "> 50 µM"

[[record]]
molecule = "Oc1ccc(O)c2c(O)cccc12 [1,4,5-Trihydroxynaphthalene]"
result = "> 90 µM"

[[record]]
molecule = "CN1CC(O)C2=C/C(=N/NC(N)=O)C(=O)C=C21 (stereo not drawn)"
result = "> 50 µM"


----------
Assay Info: in vitro
Assay Conditions: rat, gh3-tre-luc cells, AC50 (uM) modified / 1000, Tox21_110001=Tox21_302967; viability, 1 nM T3 present, 24 h
Quantity Kind: CC50 at 24 h (µM)

[[record]]
compound = "O=P(OCC(Br)CBr)(OCC(Br)CBr)OCC(Br)CBr (stereo not shown) [Tris(2,3-dibromopropyl) phosphate]"
readout_number = 54.5


----------
Assay Info: in vitro
Assay Conditions: rat, gh3-tre-luc cells, AC50 (uM) modified / 1000
Structures can show the parent of a compound that is named as a salt.
The following molecules are shown together with reported CC50 at 24 h values.
Quantity Kind: CC50 at 24 h

[[record]]
molecule = "Cc1cc(O)c(Cl)cc1C"
result = "> 90 µM"

[[record]]
molecule = "CC1CC(OC(=O)C(O)c2ccccc2)CC(C)(C)C1 (centres unmarked) [Cyclandelate]"
result = "> 50 µM"

[[record]]
molecule = "O=C(O)c1ccc(OCCCOc2ccc(C(=O)O)cc2)cc1"
result = "> 50 µM"

[[record]]
molecule = "O=[N+]([O-])c1cc(Cl)c(Cl)c(Cl)c1Cl"
result = "89.5 µM"

[[record]]
molecule = "CCCCOCCOCCOC(C)=O [2-(2-Butoxyethoxy)ethyl acetate]"
result = "> 90 µM"

[[record]]
molecule = "C=CCNC(N)=S"
result = "> 90 µM"

[[record]]
molecule = "c1ccc2c(CCC3CCNCC3)c[nH]c2c1 [Indalpine hydrochloride]"
result = "18.8 µM"

[[record]]
molecule = "c1cnc2c(n1)CCCC2 [5,6,7,8-Tetrahydroquinoxaline]"
result = "> 90 µM"

[[record]]
molecule = "CCO[Si](CCCCl)(OCC)OCC"
result = "> 90 µM"

[[record]]
molecule = "CC(C)N(C(=O)COc1nnc(C(F)(F)F)s1)c1ccc(F)cc1"
result = "> 90 µM"

[[record]]
molecule = "CC/C(=C(/CC)c1ccc(O)cc1)c1ccc(O)cc1"
result = "55.5 µM"

[[record]]
molecule = "CCOC(=O)[C@H](CCc1ccccc1)N[C@H]1CCCN2CCC[C@@H](C(=O)O)N2C1=O"
result = "> 50 µM"

[[record]]
molecule = "CCOC(=O)COc1ccc(C)cc1"
result = "> 90 µM"

[[record]]
molecule = "Nc1ccccc1 [Anilinium nitrate]"
result = "> 50 µM"

[[record]]
molecule = "CC1=C(CC=O)C(C)(C)CCC1"
result = "> 90 µM"

[[record]]
molecule = "O=C1CC(=O)NC(=O)N1"
result = "> 90 µM"

[[record]]
molecule = "Cc1cn([C@H]2C=C[C@@H](CO)O2)c(=O)[nH]c1=O"
result = "> 90 µM"

[[record]]
molecule = "O=CN(CCO)CCO [N,N-Bis(2-hydroxyethyl)formamide]"
result = "> 90 µM"

[[record]]
molecule = "CC(C)(c1ccc(O)cc1)c1ccc(O)cc1"
result = "> 90 µM"

[[record]]
molecule = "O=C1c2cccc3c2[C@H](CCC3)CN1[C@@H]1CN2CCC1CC2 [Palonosetron hydrochloride]"
result = "23.5 µM"

[[record]]
molecule = "O=c1cc[nH]c(=O)[nH]1"
result = "> 90 µM"

[[record]]
molecule = "CCc1cn([C@H]2C[C@H](O)[C@@H](CO)O2)c(=O)[nH]c1=O"
result = "> 50 µM"

[[record]]
molecule = "O=S(O)CNc1ccc(S(=O)(=O)c2ccc(NCS(=O)O)cc2)cc1 [Adesulfone sodium]"
result = "> 50 µM"

[[record]]
molecule = "O=C(O[C@@H]1Cc2c(O)cc(O)cc2O[C@@H]1c1cc(O)c(O)c(O)c1)c1cc(O)c(O)c(O)c1 [(-)-Epigallocatechin gallate]"
result = "48.4 µM"

[[record]]
molecule = "CCC1(c2ccccc2)C(=O)NCNC1=O"
result = "> 90 µM"

[[record]]
molecule = "CN1CCN(C2=Nc3ccccc3Sc3ccc(Cl)cc32)CC1"
result = "15.2 µM"

[[record]]
molecule = "Cc1cc(C)c(C)c(C)c1"
result = "> 90 µM"

[[record]]
molecule = "COC(=O)C1=C(C)NC(C)=C(C(=O)OC(C)C)C1c1cccc2nonc12 (centres unmarked)"
result = "> 20 µM"

[[record]]
molecule = "CC1(C)C2C(=O)CCC(C)(C)[C@]23CC[C@H]1C3 (some centres unmarked)"
result = "> 90 µM"

[[record]]
molecule = "Cc1ccc(Cl)c(N)c1Cl"
result = "> 90 µM"

[[record]]
molecule = "CCCCCCCCCCCCCCC(=O)O"
result = "> 90 µM"

[[record]]
molecule = "N#CCCCCC#N"
result = "> 90 µM"

[[record]]
molecule = "CCCCCC(C)O (centres unmarked)"
result = "> 90 µM"

[[record]]
molecule = "Cc1ccnc2ccccc12 [Lepidine]"
result = "> 90 µM"

[[record]]
molecule = "CCCCCCC(C)O (centres unmarked)"
result = "> 90 µM"

[[record]]
molecule = "CCCCCCCCCC(=O)N(C)C [N,N-Dimethyldecanamide]"
result = "> 90 µM"

[[record]]
molecule = "Nc1ccc(O)c(C(=O)O)c1"
result = "> 50 µM"

[[record]]
molecule = "COC(=O)CC(C)=O [Methyl acetoacetate]"
result = "> 90 µM"

[[record]]
molecule = "CC(=O)N[C@H]1C(O)O[C@H](CO)[C@H](O)[C@@H]1O (some centres unmarked)"
result = "> 50 µM"

[[record]]
molecule = "CC(C)OC(=O)C(C(=O)OC(C)C)=C1SC=CS1 [Malotilate]"
result = "> 50 µM"

[[record]]
molecule = "CC(C)c1ccc2oc3nc(N)c(C(=O)O)cc3c(=O)c2c1"
result = "> 50 µM"

